The following binders are shown together with reported inhibition of PMA-induced release of IL-6R from U-937 cells, 1 µg/ml values.
# study.system: T1, human iRhom2 (inactive rhomboid protein 2, isoform 1), endogenously expressed on human cells (human, UniProt Q6PJF5 1-856)
# T1 sequence: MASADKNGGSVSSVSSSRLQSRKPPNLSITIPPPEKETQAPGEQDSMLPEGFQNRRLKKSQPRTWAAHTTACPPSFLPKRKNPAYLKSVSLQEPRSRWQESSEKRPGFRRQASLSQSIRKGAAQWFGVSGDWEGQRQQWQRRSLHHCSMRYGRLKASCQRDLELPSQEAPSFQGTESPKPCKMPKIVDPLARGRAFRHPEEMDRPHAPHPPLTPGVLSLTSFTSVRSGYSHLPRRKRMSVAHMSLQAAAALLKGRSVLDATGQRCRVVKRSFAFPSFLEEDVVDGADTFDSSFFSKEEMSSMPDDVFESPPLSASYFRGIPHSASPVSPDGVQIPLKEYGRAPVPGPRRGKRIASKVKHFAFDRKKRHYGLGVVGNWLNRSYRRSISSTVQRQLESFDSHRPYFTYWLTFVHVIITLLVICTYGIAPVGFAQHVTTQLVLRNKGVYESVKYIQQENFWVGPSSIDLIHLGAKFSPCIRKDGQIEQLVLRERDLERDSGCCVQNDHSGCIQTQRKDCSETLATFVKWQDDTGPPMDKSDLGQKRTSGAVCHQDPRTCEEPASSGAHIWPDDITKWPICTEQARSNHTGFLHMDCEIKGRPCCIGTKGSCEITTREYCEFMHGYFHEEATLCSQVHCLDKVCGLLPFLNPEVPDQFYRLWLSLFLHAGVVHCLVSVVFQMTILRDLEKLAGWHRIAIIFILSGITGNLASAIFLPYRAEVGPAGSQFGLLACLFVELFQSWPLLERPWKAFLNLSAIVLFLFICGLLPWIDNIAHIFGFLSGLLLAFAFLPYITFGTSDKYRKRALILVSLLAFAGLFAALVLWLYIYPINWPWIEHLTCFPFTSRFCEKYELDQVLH
# experiment.summary: cell-based or functional assay
Express it in % inhibition; write the number only.

binder: antibody 44 (antibody, V domains shown, Mouse IgG, kappa light chain; also called clone #44; m44) VH: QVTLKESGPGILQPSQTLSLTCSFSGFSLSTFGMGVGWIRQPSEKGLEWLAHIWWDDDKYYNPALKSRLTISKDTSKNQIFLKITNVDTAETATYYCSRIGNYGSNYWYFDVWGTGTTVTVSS VL: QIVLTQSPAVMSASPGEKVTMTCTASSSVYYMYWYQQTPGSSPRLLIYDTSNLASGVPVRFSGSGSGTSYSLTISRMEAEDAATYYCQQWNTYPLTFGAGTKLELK
endpoint.value: 71.8

We next turn to a different binder, shown below.
Supply measured inhibition of PMA-induced release of IL-6R from U-937 cells, 1 µg/ml of antibody 34 (antibody, V domains shown, Mouse IgG, kappa light chain; also called clone #34; m34) VH: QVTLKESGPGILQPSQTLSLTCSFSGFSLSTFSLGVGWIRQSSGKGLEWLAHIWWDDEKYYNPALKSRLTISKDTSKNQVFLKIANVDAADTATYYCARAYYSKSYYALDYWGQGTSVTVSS VL: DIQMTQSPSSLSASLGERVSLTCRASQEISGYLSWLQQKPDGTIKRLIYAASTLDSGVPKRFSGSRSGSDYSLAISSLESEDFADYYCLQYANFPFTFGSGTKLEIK in your reply. 69.3
